I'd appreciate it if you could supply GI50 values for the items below.
Test system: OVCAR-4
experiment summary: NCI tumour cell line growth inhibition, 48 h
Calls of active or inactive are those of the source. Cut-off read from the data, not from the text of the source: active = GI50 up to about 1.1 µM and inactive = higher.

Recorded GI50, per entry:
>>> print(df.to_string())
                                   compound             reported
0      COC(=O)c1ccccc1CC1Cc2cc3c(cc2C1)CCC3   39.5 µM (inactive)
1  Cc1cn(C2OC(CO)C(O)C2F)c(=O)[nH]c1=O (configuration not stated)  > 100 µM (inactive)
2  COc1ccc2nc3cc(Cl)ccc3c(Nc3ccc(O)c(CN4CCN(C)CC4)c3)c2c1   1.65 µM (inactive)
3  Cc1ccc(S(=O)(=O)NC(CO)C(=O)O)cc1 (configuration not stated)  > 100 µM (inactive)
4  COc1cc(S(=O)(=O)Nc2ccc(-c3csc(/N=C\C=C\c4ccccc4)n3)cc2)ccc1Cl   28.5 µM (inactive)
5  Cc1ccc(S(=O)(=O)Oc2cc(-c3ccccc3)nc3ccccc23)cc1   7.33 µM (inactive)
6                   NCc1ccc(-c2ccc(CN)s2)s1  > 100 µM (inactive)
7                           CCCC(CCC)C(=O)O   3720 µM (inactive)

Hi! Can you tell me GI50 for each of these compounds?
1. COc1ccc(-c2cc(O)c3cc(Cl)ccc3n2)cc1
2. CCSc1nnc(-c2ccccc2)nc1Cc1ccc(OC)cc1

**Result**
["> 100 µM (inactive)", "> 100 µM (inactive)"]

Hi! Can you tell me GI50 for each of these compounds?
1. CC1=NOC(=O)/C1=C/c1ccc([N+](=O)[O-])cc1
2. O=C(O)c1nc2ccc(Cl)cc2[nH]c1=O

**Result**
1. > 100 µM (inactive)
2. > 100 µM (inactive)

---

Tested on: RXF 393
experiment summary: NCI tumour cell line growth inhibition, 48 h
The source made the active and inactive calls. Cut-off read from the data, not from the text of the source: active = GI50 up to about 1.1 µM and inactive = higher.
property measured: GI50

Recorded GI50, per entry:
>>> print(df.to_string())
                                   compound  property_measured             reported
0  COc1cc(OCCN(C)C)c2[nH]c(C(=O)N3CC(CCl)c4ccc(N)cc43)cc2c1 (stereo unspecified)               GI50   0.0204 µM (active)
1                 Cc1ccc(C(=N)Nc2ccccc2)cc1               GI50  > 100 µM (inactive)
2  CC1(C)C=Cc2c(cc3oc4ccc5c(c4c(=O)c3c2O)C=CC(C)(C)O5)O1               GI50  > 100 µM (inactive)
3                    NC1=Nc2ccccc2Sc2nncn21               GI50  > 100 µM (inactive)

Hi! Can you tell me GI50 for each of these compounds?
1. CCOc1cc2c(cc1O)C=C[C@@H]1[C@@H]2CC[C@]2(C)[C@@H](O)CC[C@@H]12
2. O=C(CCc1nnc2s/c(=C\c3ccccc3Cl)c(=O)n12)Nc1cc(Cl)ccc1Cl
3. C=CCn1c2c(sc1=S)C(S)NC=N2 (stereo unspecified)
4. COc1ccc(-c2cc(O)c3cc(Cl)ccc3n2)cc1
5. COc1ccc2c(c1)CN1C(=N2)CSC1c1cccc(Br)c1 (stereo unspecified)
6. Clc1ccc2cccc3c2c1C1OC3c2ccccc21 (stereo unspecified)
7. N#Cc1c(C#N)c(-c2ccccc2)n(Cc2ccccc2)c1N

**Result**
1: 7.29 µM (inactive); 2: > 100 µM (inactive); 3: > 100 µM (inactive); 4: > 100 µM (inactive); 5: 19.9 µM (inactive); 6: 55.5 µM (inactive); 7: 48.6 µM (inactive)

Cited source: ChEMBL document CHEMBL1201862
